particulars: in THF, 273.15 K
property label: solubility (mole fraction)
The answer should be a number; do not append a unit.

What value of solubility (mole fraction) has been reported for the following molecule? CC(=CC(C)=Nc1c(C)cc(C)cc1C)Nc1c(C)cc(C)cc1C 0.215

###

particulars: in methanol, 303.15 K
property label: solubility (mole fraction)
The answer should be a number; do not append a unit.

What value of solubility (mole fraction) has been reported for the following molecule? CC(=CC(C)=Nc1c(C)cc(C)cc1C)Nc1c(C)cc(C)cc1C 0.00275

###

particulars: in n-hexane, 293.15 K
property label: solubility (mole fraction)
The answer should be a number; do not append a unit.

What value of solubility (mole fraction) has been reported for the following compound? CC(=CC(C)=Nc1c(C)cc(C)cc1C)Nc1c(C)cc(C)cc1C 0.181
